Source: patent US20080181886A1

Listing: F' APRIL of selected binders
assayed-system: T1, Murine APRIL (mouse, UniProt Q9D777 105-241, limits assumed)
T1 sequence (looked up): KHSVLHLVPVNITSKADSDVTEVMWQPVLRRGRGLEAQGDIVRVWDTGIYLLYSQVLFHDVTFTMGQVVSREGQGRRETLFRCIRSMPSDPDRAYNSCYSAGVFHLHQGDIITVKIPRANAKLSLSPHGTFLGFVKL
test: NNS library, phage display;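 also: ligand versus display occurrence-to-degeneracy ratio and higher means enriched by binding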
Number only, no unit.

Record excerpt, results attached:
| binder | F' APRIL |
| --- | --- |
| SLSCRKEQGKFYDHLLMDCISCASICGQHPKQCAYFCENKLR (receptor, phage library variant, format as m9) [TACI_d2 R84M] | 18 |
| SLSCRKEQGKFYDHLLDDCISCASICGQHPKQCAYFCENKLR (receptor, phage library variant, format as m9) [TACI_d2 R84D] | 9 |
| SLSCRKEQGKFKDHLLRDCISCASICGQHPKQCAYFCENKLR (receptor, phage library variant, format as m9) [TACI_d2 Y79K] | 0 |
| SLSCRKEQGKDYDHLLRDCISCASICGQHPKQCAYFCENKLR (receptor, phage library variant, format as m9) [TACI_d2 F78D] | 0 |

// sample SLSCRKEQGKFMDHLLRDCISCASICGQHPKQCAYFCENKLR (receptor, phage library variant, format as m9) [TACI_d2 Y79M] , its F' APRIL was 0

// sample SLSCRKEQGKCYDHLLRDCISCASICGQHPKQCAYFCENKLR (receptor, phage library variant, format as m9) [TACI_d2 F78C] , its F' APRIL was 0
